Subject Of Test: Rac GTPase-activating protein 1 (Homo sapiens)
Assay Remarks: blockers of MgcRacGAP-driven Rac1 GTP hydrolysis – biochemical, ADP Hunter fluorescence, primary and confirmatory, confirmation (AID 624330);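 further: fluorescence reports GDP produced by GAP-driven GTP hydrolysis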
Test Context: MgcRacGAP-stimulated Rac1 GTP hydrolysis, at 30 µM, hits give high values, GST-tagged Rac1 F28L mutant substrate
Screen size: about 340,000 compounds; about 2,100 (0.62%) were called active. Only a sample is shown. Entries with a potency or affinity are not part of this list.
Attribute Measured: inhibition (%)
Entry rule: numbers only, all in %.

Use the examples below as a reference point.
COn1c(-n2nc(C)cc2C)nc2ccccc2c1=O
3.26
Cc1cc(C(=O)CCC(=O)Nc2ccc(C(N)=O)cc2)c(C)s1
15
Cc1cc(=O)cc(C)n1-c1ccc2c(c1)nc(C)n2-c1ccccc1
2.42
Cn1c(=O)c2c(nc(Br)n2CCCc2ccccc2)n(C)c1=O
8.11
Cc1ccc(OCCOCCN2CCCC2)c(Br)c1
31.4

Challenge: Would you kindly share the measured inhibition for CNc1nc2c(c(=O)[nH]c(=O)n2C)n1CCCc1ccccc1 ?
Response given: 16.1

Challenge: Would you kindly share the measured inhibition for CSc1nc2c(c(=O)[nH]c(=O)n2C)n1CCCc1ccccc1 ?
Response given: 5.17

Challenge: Would you kindly share the measured inhibition for CCOCCCNC(=O)/C(C#N)=C/c1ccc(Cl)c([N+](=O)[O-])c1 ?
Response given: 2.68
